Entries and their measured pIC50 follow.
target: A2B receptors (Homo sapiens, UniProt P29275); experiment: functional cAMP (HTRF) assay, recombinant HEK293 cells expressing human A2B receptor, agonist NECA; format: cell-based; parameters: expressed in transfected cells; host or cells: HEK293
pIC50: −log10 of the molar value.

COCCn1cc(C(=O)Nc2nc3c(-c4ccccc4)ccc(OC)c3[nH]2)cn1 [compound 307] ... > 8.00
COCc1ccc(C(=O)Nc2nc3c(-c4cnn(C)c4)ccc(OC)c3[nH]2)cc1 [compound 49] ... > 6.00
COc1ccc(-c2ccccc2F)c2nc(NC(=O)c3cnn(C)c3)[nH]c12 [compound 243] ... > 8.00
COc1ccc(C2CCOCC2)c2nc(NC(=O)c3cnc(C)s3)[nH]c12 [compound 227] ... > 7.00
COc1ccc(-c2ccccc2)c2nc(NC(=O)c3c[nH]c(C)n3)[nH]c12 [compound 255] ... > 8.00

Given COc1ccc(-c2cccc3[nH]ncc23)c2nc(NC(=O)N3CCC(C)(O)CC3)[nH]c12 [compound 271] , state its recorded pIC50. > 7.00

Try this compound too: COc1cc(C#N)c(-c2ccccc2)c2nc(NC(=O)c3cnn(C)c3)[nH]c12 [compound 300] > 7.00

Try this compound too: COCCC1CCN(C(=O)Nc2nc3c(-c4cnn(C)c4)ccc(OC)c3[nH]2)C1 (centres unmarked) [compound 134] > 6.00

Try this compound too: COc1ccc(C2=CCOC2)c2nc(NC(=O)c3ccc(C(=O)N(C)C)cc3)[nH]c12 [compound 261] > 8.00

Try this compound too: COc1ccc(-c2cnn(C)c2)c2nc(NC(=O)c3cnc(C)s3)[nH]c12 [compound 165] > 6.00

###

Entries and their measured pIC50 follow.
Target: A2B receptors (Homo sapiens)
Sequence (P29275 1-332): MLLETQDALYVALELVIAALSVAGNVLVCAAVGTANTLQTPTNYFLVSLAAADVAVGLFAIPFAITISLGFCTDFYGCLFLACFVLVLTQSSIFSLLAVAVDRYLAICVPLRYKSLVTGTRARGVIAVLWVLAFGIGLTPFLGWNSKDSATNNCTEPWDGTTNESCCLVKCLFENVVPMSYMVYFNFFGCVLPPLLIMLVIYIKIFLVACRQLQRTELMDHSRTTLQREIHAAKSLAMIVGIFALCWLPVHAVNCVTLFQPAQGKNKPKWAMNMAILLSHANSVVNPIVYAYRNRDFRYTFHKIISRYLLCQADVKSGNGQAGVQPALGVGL
Test: functional cAMP (HTRF) assay, recombinant HEK293 cells expressing human A2B receptor, agonist NECA
pIC50: −log10 of the molar value.

COc1ccc(-c2cnn(C)c2)c2nc(NC(=O)c3ccc(CN4CCOCC4)cc3)[nH]c12 [compound 152] ... > 6.00
COc1ccc(-c2cccc3cc[nH]c23)c2nc(NC(=O)N3CCC(C)(O)CC3)[nH]c12 [compound 305] ... > 7.00
COc1ccc(-c2ccccc2)c2nc(NC(=O)c3cnc(C)o3)[nH]c12 [compound 308] ... > 7.00
COc1ccc(-c2cnn(C)c2)c2nc(NC(=O)c3cncs3)[nH]c12 [compound 219] ... > 8.00
COc1ccc(-c2cnn(C)c2)c2nc(NC(=O)c3ccc(Cn4ccnc4)cc3)[nH]c12 [compound 71] ... > 7.00
COc1ccc(-c2cnn(C)c2)c2nc(NC(=O)c3ccnc(N4CCOCC4)c3)[nH]c12 [compound 26] ... < 6.00

Here's the next entry for you.
Given COc1ccc(-c2ccccc2)c2nc(NC(=O)c3cnc(N)s3)[nH]c12 [compound 258] , state its recorded pIC50. > 8.00

###

Biological target: A2B receptors (Homo sapiens, UniProt P29275)
Sequence (P29275 1-332): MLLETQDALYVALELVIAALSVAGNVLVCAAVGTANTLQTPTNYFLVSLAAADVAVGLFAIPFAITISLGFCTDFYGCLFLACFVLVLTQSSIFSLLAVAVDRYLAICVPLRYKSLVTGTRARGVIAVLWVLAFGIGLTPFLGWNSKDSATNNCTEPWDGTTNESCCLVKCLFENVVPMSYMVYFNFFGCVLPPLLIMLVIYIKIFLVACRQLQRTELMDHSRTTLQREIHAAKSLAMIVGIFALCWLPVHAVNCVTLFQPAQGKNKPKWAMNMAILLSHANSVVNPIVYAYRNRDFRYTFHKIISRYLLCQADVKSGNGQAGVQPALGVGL
Test: functional cAMP (HTRF) assay, recombinant HEK293 cells expressing human A2B receptor, agonist NECA
Entries and their measured IC50 follow.

COc1ccc(-c2ccccc2)c2nc(NC(=O)c3c[nH]c(-c4ccncc4)n3)[nH]c12 [compound 290] ... < 100 nM
COc1ccc(-c2ccccc2)c2nc(NC(=O)c3ccc(Cn4ccnc4)cc3)[nH]c12 [compound 15] ... < 10 nM
COc1ccc(-c2cccc(F)c2)c2nc(NC(=O)c3cnn(C)c3)[nH]c12 [compound 239] ... < 10 nM
COc1ccc(-c2cnn(C)c2)c2nc(NC(=O)c3ccnc(N4CCC5(CCOC5)C4)c3)[nH]c12 (stereo not shown) [compound 106] ... > 1000 nM
COc1ccc(-c2ccccc2)c2nc(NC(=O)c3ccc(N4C(=O)CCC4=O)cc3)[nH]c12 [compound 285] ... < 10 nM

For the record COc1ccc(-c2ccccc2)c2nc(NC(=O)c3cnc4ccccn34)[nH]c12 [compound 286] , what value of IC50 is listed for A2B receptors (Homo sapiens, UniProt P29275)? < 100 nM

Try this compound too: COc1ccc(-c2cnn(C)c2)c2nc(NC(=O)c3ccc4occc4c3)[nH]c12 [compound 80] < 1000 nM

Try this compound too: COc1ccc(-c2cccc(F)c2)c2[nH]c(NC(=O)c3c[nH]cn3)nc12 [compound 265] < 100 nM

###

target: human A2A receptor (Homo sapiens, UniProt P29274); assay: functional cAMP (HTRF) assay, recombinant HEK293 cells expressing human A2A receptor, agonist NECA
Sequence (P29274 whole entry): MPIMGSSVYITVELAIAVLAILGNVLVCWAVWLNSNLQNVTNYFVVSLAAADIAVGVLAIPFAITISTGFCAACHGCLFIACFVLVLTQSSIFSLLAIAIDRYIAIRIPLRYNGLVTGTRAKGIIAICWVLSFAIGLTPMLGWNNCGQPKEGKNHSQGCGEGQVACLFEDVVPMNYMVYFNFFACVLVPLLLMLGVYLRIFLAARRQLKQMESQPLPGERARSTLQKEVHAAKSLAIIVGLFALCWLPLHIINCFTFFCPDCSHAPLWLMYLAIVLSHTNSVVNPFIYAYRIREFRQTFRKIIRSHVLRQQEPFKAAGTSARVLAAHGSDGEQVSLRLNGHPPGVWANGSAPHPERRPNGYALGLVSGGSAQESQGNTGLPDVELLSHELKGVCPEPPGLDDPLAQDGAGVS
pIC50: −log10 of the molar value.
Entries and their measured pIC50 follow.

In the examples that follow, each entry is paired with its recorded pIC50.
COCCn1cc(C(=O)Nc2nc3c(-c4ccn5ccnc5c4)ccc(OC)c3[nH]2)cn1 ... > 7.00
COc1ccc(-c2ccccc2)c2nc(NC(=O)c3ccc(Cn4ccnc4)cc3)[nH]c12 ... > 8.00
COc1ccc(-c2cnn(CCC(C)C)c2)c2nc(NC(=O)N3CCC(C)(O)CC3)[nH]c12 ... > 8.00
COCCOCCn1cc(-c2ccc(OC)c3nc(NC(=O)N4CCC(C)(O)CC4)[nH]c23)cn1 ... > 7.00
COCCn1cc(C(=O)Nc2nc3c(-c4ccnc5[nH]ccc45)ccc(OC)c3[nH]2)cn1 ... > 7.00

For the record COc1cc(C#N)c(-c2ccccc2)c2nc(NC(=O)c3cnn(C)c3)[nH]c12 , what value of pIC50 is listed for human A2A receptor (Homo sapiens, UniProt P29274)? > 7.00

###

target: human A1 receptor (Homo sapiens, UniProt P30542); assay: functional cAMP (HTRF) assay, recombinant CHO cells expressing human A1 receptor, forskolin, agonist CPA
Sequence (P30542 whole entry): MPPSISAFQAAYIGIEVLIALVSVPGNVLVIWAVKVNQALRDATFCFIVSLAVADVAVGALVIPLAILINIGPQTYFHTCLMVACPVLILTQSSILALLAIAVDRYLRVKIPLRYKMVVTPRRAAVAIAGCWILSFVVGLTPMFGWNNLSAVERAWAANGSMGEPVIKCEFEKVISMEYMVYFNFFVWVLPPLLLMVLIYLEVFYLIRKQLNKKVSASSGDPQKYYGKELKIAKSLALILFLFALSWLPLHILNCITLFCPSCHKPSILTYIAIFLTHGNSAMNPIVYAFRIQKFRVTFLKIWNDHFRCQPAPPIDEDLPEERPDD
pIC50: −log10 of the molar value.
measuredQuantity: pIC50

COc1ccc(-c2cccnc2)c2[nH]c(NC(=O)c3c[nH]cn3)nc12 ... < 6.00
COc1ccc(C2=CCOC2)c2nc(NC(=O)c3ccc(C(=O)N(C)C)cc3)[nH]c12 ... < 6.00
COc1ccc(-c2cccnc2)c2nc(NC(=O)c3cnn(C)c3)[nH]c12 ... > 6.00
COc1ccc(-c2ccccc2)c2nc(NC(=O)c3cncn3C)[nH]c12 ... > 6.00
COc1ccc(C2CCOCC2)c2nc(NC(=O)NCc3nccs3)[nH]c12 ... < 6.00
COc1ccc(-c2cnn(C)c2)c2nc(NC(=O)N3CC[C@@]4(CCCOC4)C3)[nH]c12 ... < 6.00
COc1ccc(C2CCOCC2)c2nc(NC(=O)c3ccnc(N4CCC(C)(O)CC4)c3)[nH]c12 ... < 6.00
COc1ccc(C2CCOCC2)c2nc(NC(=O)c3ccc(CN(C)C)cc3)[nH]c12 ... < 6.00

Given COc1ccc(-c2cnn(CCC(C)C)c2)c2nc(NC(=O)N3CCC(C)(O)CC3)[nH]c12 , state its recorded pIC50. > 6.00

Try this molecule too: COc1ccc(-c2ccncc2)c2nc(NC(=O)N3CCC4(COC4)C3)[nH]c12 < 6.00

Try this molecule too: COc1ccc(-c2cnn(C)c2)c2nc(NC(=O)c3ccc(N4C(=O)CCC4=O)cc3)[nH]c12 < 6.00

Try this molecule too: COCCn1cc(C(=O)Nc2nc3c(C4CCOCC4)ccc(OC)c3[nH]2)cn1 < 6.00

Try this molecule too: CCNCc1ccc(C(=O)Nc2nc3c(-c4ccccc4)ccc(OC)c3[nH]2)cc1 < 6.00
